Sourced from a melting point compilation (Tetko et al.; mined from patent text by program, amines drawn as free bases though some values may be those of a salt)

Assay Readout: melting point

Q: Query melting point for CC(C)(COc1ccc([N+](=O)[O-])cc1)N1CC(COc2cccc(Cl)c2)OC1=O (stereo not given)
A: 108 to 112 °C

Q: Query melting point for CC(=NO)[C@H]1C[C@H](C(=O)OC(C)(C)C)N(C(=O)CNC(=O)Nc2cccc(C(=O)O)c2)[C@@H]1c1ccccc1 (racemic)
A: 180 °C

Q: Query melting point for COC1=C(OCCCCCc2ccccc2)C2OC2(C=O)C=C1 (stereo not given)
A: 65 to 67 °C

Q: Query melting point for CC(C)C[C@@H](C(=O)N1CCN(C(c2ccc(F)cc2)c2ccc(F)cc2)CC1)N(C)C1CCOCC1
A: 56 to 65 °C

Q: Query melting point for COC1C(O)C(CO)OC1n1ccc(=O)[nH]c1=O (stereo not given)
A: 158 to 159 °C

Q: Query melting point for Cc1nc(Nc2ccccc2)sc1-c1cccnc1
A: 178 to 180 °C

Q: Query melting point for CCOC(=O)Cc1ccc2c(c1)sc1cc(N(C)C)ccc12
A: 115 to 120 °C

Q: Query melting point for CN1C(=O)NCc2cc(Br)cnc21
A: 216 to 217 °C

Q: Query melting point for Cc1nc2c3c(ccn2c1C)[C@@H](OCCS(C)=O)[C@H](O)[C@@H](c1ccccc1)N3 (stereo not given in full)
A: 105 to 106 °C

Q: Query melting point for Cc1ccc(-c2ccc(C(=O)Nc3cc4ncc(CN5CCCC5)cc4cc3C)cn2)cc1
A: 214 to 218 °C

Q: Query melting point for O=C(O)c1ccc(OCc2ccc(Cl)c(Cl)c2)cc1
A: 222 to 223 °C

Q: Query melting point for Cc1cc(C)c2ncc(NC(=O)c3cc(C(C)(C)C)c(O)c(C(C)(C)C)c3)c(-c3ccccc3Cl)c2c1
A: 127 to 129 °C

Q: Query melting point for Nc1c2c(nc3ccccc13)CCS2
A: 210 to 212 °C

Q: Query melting point for COc1ccc(-c2nc(C)[nH]c3cc(-c4ccccc4)nc2-3)cc1
A: 225 to 227 °C

Q: Query melting point for NC1=C2C=NN=C2N(c2ccccc2)CN1c1ccccc1
A: 244 to 246 °C

Q: Query melting point for O=C(NC[C@H]1CN(c2ccc(C3C=CS(=O)(=O)CC3)cc2)C(=O)O1)C(Cl)Cl (stereo not given in full)
A: 159 to 161 °C

Q: Query melting point for CCCCc1nc(Cl)c(C=O)n1Cc1ccc(-c2ccccc2C#N)cc1
A: 96 to 97 °C

Q: Query melting point for CC(C)(C)C(=O)Nc1ccc(C(F)(F)F)cc1C=O
A: 69 to 73 °C

Q: Query melting point for CCNC(=O)c1ccc(N2CCN(Cc3cc(C)c4c(c3)NC(=O)C(C)O4)CC2)c(F)c1 (stereo not given)
A: 242 to 245 °C

Q: Query melting point for O=C(O)CCC/C=C/c1ccc(-c2ccccc2)cc1
A: 107 to 109 °C
